# Tested on: HepG2
# ASSAY_EXPLANATION: cell viability relative to DMSO; higher = less toxic
# PROTOCOL_CONDITIONS: 72 h; 100 nM
Where a name gives a salt, the structure may show the parent alone.

| COMPOUND | UNIT_SYMBOL | cell viability |
| --- | --- | --- |
| c1ccc(CC2=NCCN2)cc1 [tolazoline] | % | 101 |
| O=c1[nH]cc(F)c(=O)[nH]1 [5-fluorouracil] | % | 103 |
| N#C[C@H](O[C@@H]1O[C@H](CO[C@@H]2O[C@H](CO)[C@@H](O)[C@H](O)[C@H]2O)[C@@H](O)[C@H](O)[C@H]1O)c1ccccc1 [amygdalin] | % | 104 |
| NC1(C(=O)O)CC1 [ACPC] | % | 90 |
| CC1CCN(C(c2ccc(F)cc2)c2ccc(C(C)C(=O)O)cc2-c2ccc(C(F)(F)F)cc2)CC1 (stereo not given) [TC-E-5006] | % | 99 |
| CC(=O)N1CCN(c2ccc(OC[C@@H]3CO[C@@](Cn4ccnc4)(c4ccc(Cl)cc4Cl)O3)cc2)CC1 (racemic) [ketoconazole] | % | 111 |
| Oc1ccc(O)cc1 [hydroquinone] | % | 94.7 |
| CCC(CC)O[C@@H]1C=C(C(=O)O)C[C@H](N)[C@H]1NC(C)=O [oseltamivir-carboxylate] | % | 108 |
| N=C(N)NCCCC[C@@H]1NC(=O)CCSSC[C@@H](C(N)=O)NC(=O)[C@@H]2CCCN2C(=O)[C@H](Cc2c[nH]c3ccccc23)NC(=O)[C@H](CC(=O)O)NC(=O)CNC1=O [eptifibatide] | % | 94.7 |
| CCCCCCCC/C=C\CCCCCCCC(N)=O [oleamide] | % | 99.2 |
| COc1cc2ncnc(Nc3ccc(Oc4ccccc4)cc3)c2cc1OC [SRC-kinase-inhibitor-I] | % | 104 |
| CCC(NC(C)C)C(O)c1ccc(O)c(O)c1 (stereo not given) [isoetharine] | % | 104 |
| O=C(NCCN1CCC2(CC1)C(=O)NCN2c1cccc(F)c1)c1ccc2ccccc2c1 | % | 102 |
| N#CN1CCCC1 [pyrrolidine-1-carbonitrile] | % | 94.4 |
| Cc1noc2c1-c1ccccc1C(c1ccc(Cl)cc1)=N[C@H]2CC(N)=O [CPI-0610] | % | 101 |
| O=C(NCC1(N2CCN(c3ccccc3)CC2)CCOCC1)c1cccnc1Sc1ccccc1 | % | 103 |
| Fc1ccc(C(OCCN2CCN(CCCc3ccccc3)CC2)c2ccc(F)cc2)cc1 [vanoxerine] | % | 102 |
| Cc1cccc(-c2n[nH]cc2-c2ccc3ncccc3n2)n1 [repsox] | % | 98.8 |
| Cc1cccc(N(C)C(=S)Oc2ccc3ccccc3c2)c1 [tolnaftate] | % | 91.6 |
| CC(N)CCCC(C)(C)O (stereo not given) [heptaminol] | % | 102 |
| Cn1cc(C(F)(F)F)nc1-c1ccc(OCC(O)CNCCOc2ccc(O)c(C(N)=O)c2)cc1 (stereo not given) | % | 122 |
| Nc1ccn([C@@H]2O[C@H](CO)[C@@H](O)[C@@H]2O)c(=O)n1 [cytarabine] | % | 66.4 |
| COC(=O)N1CC[C@@H]2[C@H]1CCC[C@@]2(O)C#Cc1cccc(C)c1 [mavoglurant] | % | 95.5 |
| CN(C)CCOc1ccc(-c2nc(-c3ccncc3)c(-c3ccc4c(c3)CC/C4=N\O)[nH]2)cc1 | % | 96.8 |
| N=C(Nc1ccc(I)cc1)NC1C2CC3CC(C2)CC1C3 (stereo not given) [IPAG] | % | 87.6 |
| O=C(O)CCC(=O)O [succinic-acid] | % | 110 |
| CO/N=C(\C(=O)N[C@@H]1C(=O)N2C(C(=O)O)=C(Cn3ccc(=N)n3CCO)CS[C@H]12)c1csc(N)n1 [Cefoselis sulfate] | % | 91.4 |
| N[C@H]1C[C@@H]1c1ccccc1 (racemic) [tranylcypromine] | % | 97 |
| Nc1ncnc2c1c(COc1cccc(Cl)c1)nn2C1CCOCC1 | % | 109 |
| O=C(Nc1cccc(C(F)(F)F)c1)Nc1cc(S(=O)(=O)NC2CC2)ccc1-c1ccsc1 [AGI-6780] | % | 94 |
